# System: Aspergillus fumigatus
# procedure_summary: Antifungal activity against Aspergillus fumigatus after 48 hrs by agar diffusion method
# Assay type: functional
recorded_metric: diameter of the inhibition zone (DIZ)
Write the numeric value and append its unit.

Take a look at these entries with their results.
Cc1nn(-c2ccccc2)c(Cl)c1/C=C/C(=O)C1C(=O)NC(=O)NC1=O	21.3 mm
Cc1nn(-c2ccccc2)c(Cl)c1/C=C/C(=O)C1C(=O)NC(=S)NC1=O	17.9 mm
Cc1nn(-c2ccccc2)c(Cl)c1C1CC(C2C(=O)NC(=S)NC2=O)=NN1 (stereo unspecified)	16.2 mm
Cc1nn(-c2ccccc2)c(Cl)c1/C=C/C(=O)C1C(=O)N(C)C(=O)N(C)C1=O	18.6 mm

Query: Data request, read-out diameter of the inhibition zone (DIZ), for Cc1nn(-c2ccccc2)c(Cl)c1C1CC(C2C(=O)N(C)C(=O)N(C)C2=O)=NN1 (stereo unspecified)
Reply: 17.4 mm

Query: Data request, read-out diameter of the inhibition zone (DIZ), for Cc1nn(-c2ccccc2)c(Cl)c1C1CC(C2C(=O)NC(=O)NC2=O)=NN1 (stereo unspecified)
Reply: 16.8 mm

* * *

# Test system: Streptococcus pyogenes
# procedure_summary: Bactericidal activity against clinical isolate of Streptococcus pyogenes after 18 to 24 hrs by colony counting method
# Assay type: functional
Collected MBC values appear next to each entry.

Take a look at these entries with their results.
Cc1nn(-c2ccccc2)c(Cl)c1C1CC(C2C(=O)NC(=O)NC2=O)=NN1 (stereo unspecified)	100 µg/mL
Cc1nn(-c2ccccc2)c(Cl)c1/C=C/C(=O)C1C(=O)N(C)C(=O)N(C)C1=O	50 µg/mL

Query: Data request, read-out MBC, for Cc1nn(-c2ccccc2)c(Cl)c1C1CC(C2C(=O)NC(=S)NC2=O)=NN1 (stereo unspecified)
Reply: 100 µg/mL

Query: Data request, read-out MBC, for Cc1nn(-c2ccccc2)c(Cl)c1/C=C/C(=O)C1C(=O)NC(=S)NC1=O
Reply: 100 µg/mL

Query: Data request, read-out MBC, for Cc1nn(-c2ccccc2)c(Cl)c1/C=C/C(=O)C1C(=O)NC(=O)NC1=O
Reply: 25 µg/mL

Query: Data request, read-out MBC, for Cc1nn(-c2ccccc2)c(Cl)c1C1CC(C2C(=O)N(C)C(=O)N(C)C2=O)=NN1 (stereo unspecified)
Reply: 50 µg/mL
